test: Plasma concentration versus time of Compound I and metabolite Compound III in patients dosed QD or BID with Form B of Compound II plus fulvestrant; type: in vivo, human; settings: human, plasma, oral, 150 mg, 150 mg BID of Form B, Day 1, 1.0 h, Median; read-out: Compound I Concentration
Endpoint Name: concentration at 1 h (ng/mL)
# value in ng/mL; strip the unit string

Notebook: CC(C)N1CCN(c2ccc(Nc3ncc4cc5n(c4n3)C3(CCCCC3)CNC5=O)nc2)CC1 [Compound I] , concentration at 1 h read as 5.06

---

assay: Noncompartmental pharmacokinetic parameters (Cmax, Tmax, AUC, Racc) in QD and BID cohorts of Form B; type: in vivo, human; settings: human, plasma, oral, 500 mg, Compound III; 500 mg QD of Form B; Cohort 4; Day 1; read-out: AUClast (Median)
Endpoint Name: AUC(0-t) (µg·h/mL)
# value in µg·h/mL; strip the unit string

Notebook: O=C1NCC2(CCCCC2)n2c1cc1cnc(Nc3ccc(N4CCNCC4)cn3)nc12 [Compound III] , AUC(0-t) read as 0.079
